- assay: Cytotoxicity against human L02 cells assessed as inhibition of cell growth incubated for 24 hrs by MTT assay
- Format: toxicity, cell-based
So I've got a bunch of compounds here, and I need their IC50 at 24 h values.
// note: answer is a bare numeric in mg/L

Report IC50 at 24 h for `Br.O=C(CCCCCCCCC[P+](c1cccc(F)c1)(c1cccc(F)c1)c1cccc(F)c1)OC[C@H](NC(=O)C(Cl)Cl)[C@H](O)c1ccc([N+](=O)[O-])cc1` please. 28.7

Report IC50 at 24 h for `COc1ccc([P+](CCCCCCCCCC(=O)O)(c2ccc(OC)cc2)c2ccc(OC)cc2)cc1.[Br-]` please. 13.5

Report IC50 at 24 h for `Br.O=C(CCCCCCCCC[P+](c1ccc(Cl)cc1)(c1ccc(Cl)cc1)c1ccc(Cl)cc1)OC[C@H](NC(=O)C(Cl)Cl)[C@H](O)c1ccc([N+](=O)[O-])cc1` please. 16.4

====

- Tested on: Staphylococcus aureus
- assay: Antibacterial activity against methicillin-resistant Staphylococcus aureus 3390 assessed as inhibition of bacterial growth incubated for 16 to 18 hrs by CLSI based two-fold serial dilution method
- Format: functional
- setup_conditions: time 16-18 hrs
# label = T if MIC < 2 µg/mL else F

Check if MIC falls below 2 µg/mL for `O=C(O)CC[P+](c1ccccc1)(c1ccccc1)c1ccccc1.[Br-]` . F

Check if MIC falls below 2 µg/mL for `O=C(O)CCCCCCCCC[P+](c1ccccc1)(c1ccccc1)c1ccccc1.[Br-]` . F

Check if MIC falls below 2 µg/mL for `Br.O=C(CC[P+](c1ccccc1)(c1ccccc1)c1ccccc1)OC[C@H](NC(=O)C(Cl)Cl)[C@H](O)c1ccc([N+](=O)[O-])cc1` . F

Check if MIC falls below 2 µg/mL for `O=C(O)CCCCCCCCC[P+](c1ccc(F)cc1)(c1ccc(F)cc1)c1ccc(F)cc1.[Br-]` . F

Check if MIC falls below 2 µg/mL for `O=C(O)CCCCCCCCCCC[P+](c1ccccc1)(c1ccccc1)c1ccccc1.[Br-]` . F

Check if MIC falls below 2 µg/mL for `O=C(O)CCCCCCCCC[P+](c1ccc(Cl)cc1)(c1ccc(Cl)cc1)c1ccc(Cl)cc1.[Br-]` . F

Check if MIC falls below 2 µg/mL for `Cc1ccc([P+](CCCCCCCCCC(=O)O)(c2ccc(C)cc2)c2ccc(C)cc2)cc1.[Br-]` . F

Check if MIC falls below 2 µg/mL for `Br.O=C(CCCCC[P+](c1ccccc1)(c1ccccc1)c1ccccc1)OC[C@H](NC(=O)C(Cl)Cl)[C@H](O)c1ccc([N+](=O)[O-])cc1` . F

Check if MIC falls below 2 µg/mL for `Br.CN(C)c1ccc([P+](CCCCCCCCCC(=O)OC[C@H](NC(=O)C(Cl)Cl)[C@H](O)c2ccc([N+](=O)[O-])cc2)(c2ccc(N(C)C)cc2)c2ccc(N(C)C)cc2)cc1` . T

Check if MIC falls below 2 µg/mL for `Br.Cc1ccc([P+](CCCCCCCCCC(=O)OC[C@H](NC(=O)C(Cl)Cl)[C@H](O)c2ccc([N+](=O)[O-])cc2)(c2ccc(C)cc2)c2ccc(C)cc2)cc1` . T

Check if MIC falls below 2 µg/mL for `COc1cccc([P+](CCCCCCCCCC(=O)O)(c2cccc(OC)c2)c2cccc(OC)c2)c1.[Br-]` . F

====

- assay: Cytotoxicity against human L02 cells assessed as inhibition of cell growth incubated for 24 hrs by MTT assay
- Type: toxicity, cell-based
endpoint_name: IC50 at 24 h

Report IC50 at 24 h for `Br.O=C(CCCCCCCCC[P+](c1ccccc1)(c1ccccc1)c1ccccc1)O[C@H](c1ccc([N+](=O)[O-])cc1)[C@H](CO)NC(=O)C(Cl)Cl` please. < 32 µg/mL

Report IC50 at 24 h for `O=C(O)CCCCCCC[P+](c1ccccc1)(c1ccccc1)c1ccccc1.[Br-]` please. > 64 µg/mL

Report IC50 at 24 h for `Br.O=C(CCCCCCCCCCC[P+](c1ccccc1)(c1ccccc1)c1ccccc1)OC[C@H](NC(=O)C(Cl)Cl)[C@H](O)c1ccc([N+](=O)[O-])cc1` please. 16.5 µg/mL

Report IC50 at 24 h for `Br.O=C(CCCC[P+](c1ccccc1)(c1ccccc1)c1ccccc1)OC[C@H](NC(=O)C(Cl)Cl)[C@H](O)c1ccc([N+](=O)[O-])cc1` please. > 64 µg/mL

Report IC50 at 24 h for `Br.O=C(CCCCCCCCC[P+](c1ccc(F)cc1)(c1ccc(F)cc1)c1ccc(F)cc1)OC[C@H](NC(=O)C(Cl)Cl)[C@H](O)c1ccc([N+](=O)[O-])cc1` please. > 64 µg/mL

====

- Tested on: Staphylococcus aureus
- assay: Antibacterial activity against methicillin-resistant Staphylococcus aureus 3390 assessed as inhibition of bacterial growth incubated for 16 to 18 hrs by CLSI based two-fold serial dilution method
- Format: functional
- setup_conditions: time 16-18 hrs
endpoint_name: MIC (µg/mL)
// note: answer is a bare numeric in µg/mL

Report MIC for `Br.O=C(CCCCCCCCCCC[P+](c1ccccc1)(c1ccccc1)c1ccccc1)OC[C@H](NC(=O)C(Cl)Cl)[C@H](O)c1ccc([N+](=O)[O-])cc1` please. 2

Report MIC for `CN(C)c1ccc([P+](CCCCCCCCCC(=O)O)(c2ccc(N(C)C)cc2)c2ccc(N(C)C)cc2)cc1.[Br-]` please. 8

Report MIC for `Br.O=C(COCCOCCOCC[P+](c1ccc(F)cc1)(c1ccc(F)cc1)c1ccc(F)cc1)OC[C@@H](NC(=O)C(Cl)Cl)[C@@H](O)c1ccc([N+](=O)[O-])cc1` please. 8

Report MIC for `Br.O=C(CCC[P+](c1ccccc1)(c1ccccc1)c1ccccc1)OC[C@H](NC(=O)C(Cl)Cl)[C@H](O)c1ccc([N+](=O)[O-])cc1` please. 32

Report MIC for `Br.O=C(CCCCCCCCC[P+](c1cccc(F)c1)(c1cccc(F)c1)c1cccc(F)c1)OC[C@H](NC(=O)C(Cl)Cl)[C@H](O)c1ccc([N+](=O)[O-])cc1` please. 1

Report MIC for `COc1ccc([P+](CCCCCCCCCC(=O)O)(c2ccc(OC)cc2)c2ccc(OC)cc2)cc1.[Br-]` please. 16

Report MIC for `Br.COc1ccc([P+](CCCCCCCCCC(=O)OC[C@H](NC(=O)C(Cl)Cl)[C@H](O)c2ccc([N+](=O)[O-])cc2)(c2ccc(OC)cc2)c2ccc(OC)cc2)cc1` please. 2

Report MIC for `Br.O=C(CCCCCCCCC[P+](c1ccccc1)(c1ccccc1)c1ccccc1)O[C@H](c1ccc([N+](=O)[O-])cc1)[C@H](CO)NC(=O)C(Cl)Cl` please. 1

Report MIC for `Br.COc1cccc([P+](CCCCCCCCCC(=O)OC[C@H](NC(=O)C(Cl)Cl)[C@H](O)c2ccc([N+](=O)[O-])cc2)(c2cccc(OC)c2)c2cccc(OC)c2)c1` please. 2

====

- assay: Cytotoxicity against human L02 cells assessed as inhibition of cell growth incubated for 24 hrs by MTT assay
- Format: toxicity, cell-based
So I've got a bunch of compounds here, and I need their IC50 at 24 h values.

Report IC50 at 24 h for `O=C(O)CCCCCCCCC[P+](c1ccc(Cl)cc1)(c1ccc(Cl)cc1)c1ccc(Cl)cc1.[Br-]` please. 30.8 µg/mL

Report IC50 at 24 h for `Cc1ccc([P+](CCCCCCCCCC(=O)O)(c2ccc(C)cc2)c2ccc(C)cc2)cc1.[Br-]` please. 23.1 µg/mL

Report IC50 at 24 h for `O=C(O)CCCCCCCCC[P+](c1cccc(F)c1)(c1cccc(F)c1)c1cccc(F)c1.[Br-]` please. > 64 µg/mL

Report IC50 at 24 h for `O=C(O)CCCCCCCCC[P+](c1ccc(F)cc1)(c1ccc(F)cc1)c1ccc(F)cc1.[Br-]` please. > 64 µg/mL

Report IC50 at 24 h for `O=C(O)CC[P+](c1ccccc1)(c1ccccc1)c1ccccc1.[Br-]` please. > 64 µg/mL

Report IC50 at 24 h for `Br.Cc1ccc([P+](CCCCCCCCCC(=O)OC[C@H](NC(=O)C(Cl)Cl)[C@H](O)c2ccc([N+](=O)[O-])cc2)(c2ccc(C)cc2)c2ccc(C)cc2)cc1` please. 14.7 µg/mL

Report IC50 at 24 h for `Br.O=C(CCCCC[P+](c1ccccc1)(c1ccccc1)c1ccccc1)OC[C@H](NC(=O)C(Cl)Cl)[C@H](O)c1ccc([N+](=O)[O-])cc1` please. > 64 µg/mL

Report IC50 at 24 h for `CN[C@H](CC(C)C)C(=O)N[C@H]1C(=O)N[C@@H](CC(N)=O)C(=O)N[C@H]2C(=O)N[C@H]3C(=O)N[C@H](C(=O)N[C@H](C(=O)O)c4cc(O)cc(O)c4-c4cc3ccc4O)[C@H](O)c3ccc(c(Cl)c3)Oc3cc2cc(c3O[C@@H]2O[C@H](CO)[C@@H](O)[C@H](O)[C@H]2O[C@H]2C[C@](C)(N)[C@H](O)[C@H](C)O2)Oc2ccc(cc2Cl)[C@H]1O` please. > 64 µg/mL

Report IC50 at 24 h for `O=C(N[C@H](CO)[C@H](O)c1ccc([N+](=O)[O-])cc1)C(Cl)Cl` please. > 64 µg/mL

Report IC50 at 24 h for `O=C(O)CCCCCCCCCCCCCCCCC[P+](c1ccccc1)(c1ccccc1)c1ccccc1.[Br-]` please. > 64 µg/mL

Report IC50 at 24 h for `Br.CN(C)c1ccc([P+](CCCCCCCCCC(=O)OC[C@H](NC(=O)C(Cl)Cl)[C@H](O)c2ccc([N+](=O)[O-])cc2)(c2ccc(N(C)C)cc2)c2ccc(N(C)C)cc2)cc1` please. 12.4 µg/mL

Report IC50 at 24 h for `O=C(O)c1cn(C2CC2)c2cc(N3CCNCC3)c(F)cc2c1=O` please. > 64 µg/mL

Report IC50 at 24 h for `Br.COc1cccc([P+](CCCCCCCCCC(=O)OC[C@H](NC(=O)C(Cl)Cl)[C@H](O)c2ccc([N+](=O)[O-])cc2)(c2cccc(OC)c2)c2cccc(OC)c2)c1` please. 21.7 µg/mL
